Catalogue of pKa readings, one per entry.
Conditions: basic group
READOUT NAME: pKa

- Cc1cccc(N)c1-c1c(C)cccc1N: 3.7
- CC[NH+](CC)CCCC(C)Nc1cc(C)nc2cc(Cl)ccc12 (stereo unspecified): 8.52
- Nc1cc([NH3+])ccc1O: 3.05
- Cc1nc(N)c2cnn(-c3ccccc3)c2n1: 4.52
- Cc1cc([N+](=O)[O-])cc(C)c1N: 0.98
- COc1nc2ccccc2nc1C: 1.38
- CCCNC(C)C(=O)Nc1ccccc1C (stereo unspecified): 7.32
- CCOC(=O)CC(NC)c1ccccc1 (stereo unspecified): 8.23
- Nc1ncnc2ncn([C@H]3O[C@H](CO)[C@@H](O)[C@H]3O)c12: 3.9
- CCCCCN(CC(C)O)CC(C)O (stereo unspecified): 9
- COc1ccc(-c2ncc(-c3ccc(N)cc3)o2)cc1: 3.71
- CC#C[C@H](C)Oc1cc(N)c(Cl)cc1C(=O)N[C@@H]1C[C@H]2CC[C@@H](C1)N2C: 9.95
- COc1ccc2c3c1O[C@H]1C(=O)CC[C@H]4[C@@H](C2)N(C)CC[C@]314: 7.67
- CCCSCCN: 9.43
- N#CCC(N)c1ccccc1 (stereo unspecified): 6.7
- Cc1cnc(C)c(O)c1C=O: 4.1
- Cn1cc2ccccc2n1: 2.13
- CCOC(=O)N1CCN(C)CC1: 7.31
- CNc1ccccc1C: 4.59
- Nc1nc(N)c2cnn(-c3ccccc3)c2n1: 4.49
- Cc1ccc(-c2ncc(-c3ccc(Cl)cc3)o2)cc1: 0.88

----------
Settings: acidic group
The class of a record is decided solely by its measured pKa; consult low (below 3), moderate (3 to below 7), high (7 or more)

* C[C@@H]1CCCC[C@@H]1C(=O)O | moderate
* COc1cc(S(C)=O)ccc1-c1nc2[nH]ncc2[nH]1 (centres undefined) | high
* CC(C)=CCC1C(=O)C(CC=C(C)C)(CC=C(C)C)C(O)(C(=O)O)C1=O (centres undefined) | moderate
* CC(C)[C@@]12C[NH2+][C@@H](C(=O)O)[C@@H]1CC(=O)O2 | low
* S=C(Nc1ccccc1)c1ccccc1 | high
* CCCC1(Br)C(=O)NC(=O)NC1=O | moderate
* CC1SC(C)(C(=O)O)OC1=O (centres undefined) | low
* CC1CCCC(C(=O)O)c2nnnn21 (centres undefined) | moderate
* Cc1c(Cl)cccc1C(=O)O | moderate

----------
Catalogue of pKa readings, one per entry.
Details: basic group
READOUT NAME: pKa

- CC[C@H](C(=O)[O-])[C@H](CO)Cc1cncn1C: 7.47
- CC(C)NCC(=O)[O-]: 10.1
- N[C@H]1C[C@H]2CCCC[C@@H]2C[C@@H]1[NH3+]: 6.68
- CC(C)NCC(O)c1cccc(F)c1 (centres undefined): 9.48

----------
Settings: acidic group
READOUT NAME: pKa

• O=C(O)CSCc1ccccc1 = 3.73
• On1nnc2cc(Cl)ccc21 = 4.18
• C[N+](C)(C)CCCc1cccc(O)c1 = 9.64
• O=C(/C=N/O)/C=N/O = 7.65
• CN1C(=S)NC(=O)C12CCCCC2 = 9.25
• CCC(CC)C(=O)O[C@H]1O[C@@H](C(=O)O)[C@H](O)[C@@H](O)[C@@H]1O = 3.37

----------
Settings: acidic group
Catalogue of pKa readings, one per entry.
READOUT NAME: pKa

• O=C(O)[C@H]1C[C@H]2CC[C@@H]1C2 = 5.08
• CC[NH2+]CC[SeH] = 5.04
• O=S(=O)(NBr)c1ccccc1 = 4.95

----------
Conditions: basic group
Where a SMILES comes first, the peptide text is derived from it.
READOUT NAME: pKa

* CN(C)CCCC(=O)Oc1ccc([N+](=O)[O-])cc1 | 9.6
* CCN1CCCC1 | 11
* Cc1cc(N)ccc1CN | 9.77
* Nc1ccnc(N)n1 | 7.26
* NCC(=O)NCC(=O)NCC(=O)N1CCC[C@H]1C(=O)[O-] (H-GGGP-OH) | 8.04
* CN(C)/C=N/c1ccc([N+](=O)[O-])cc1 | 6.71
* O=[N+]([O-])c1cccc2nc3ccccc3c(NCCO)c12 | 7.2
* CN(C)c1ccc(C(=O)O)cc1 | 2.57
* CN(C)CC[NH+](C)C | 6.04

----------
Settings: basic group
READOUT NAME: pKa

- CCCN(CC(C)O)CC(O)CC (centres undefined): 9
- CNC(C)Cc1ccc(OC)c(OC)c1 (centres undefined): 9.8
- CC(N)CCCc1ccccc1 (centres undefined): 9.99
- Cc1nc(C)c(C)[nH+]c1C: -2.73

----------
Settings: acidic group
READOUT NAME: pKa

• CCC(=O)NBr = 8.2
• Nc1nnc(S(N)(=O)=O)s1 = 7.69
• O=C(O)CP = 4.07
• O=c1cccc(O)cc1O = 5.76
• Cc1cc(S(=O)(=O)N(CCO)CCO)cc(C)c1O = 8.25
• CCOC(=O)CC(=O)c1ccc(C)cc1 = 10.7
• CC(=N\O)/C(C)=N/O = 10.6

----------
Details: acidic group
Catalogue of pKa readings, one per entry.
READOUT NAME: pKa

• O=C1CCc2ccc([N+](=O)[O-])cc2C1 = 11.8
• C[C@H]1CC[C@H](C)C1C(=O)O = 4.74
• O=C(O)CC#Cc1ccccc1 = 3.44
• CONC(=O)c1ccccc1 = 8.89
• CC(C#N)CC(=O)O (stereo not given) = 3.95
• Oc1ccc2nc3ccccc3nc2c1 = 7.45
• Cn1cnc2c(O)[nH+]c(N)nc21 = 3.07
• CC(=O)[n+]1ccc(N(C)C)cc1 = 9.55
• N#Cc1c[nH+]c2ccccc2c1O = -2.08
• CC(=N\O)/C(CO)=N/O = 10.1
• Cc1cccc(C)c1O = 10.6
• [O-][n+]1ccc(O)cc1 = 5.76
• O=C1Cc2c1ccc(O)c2[N+](=O)[O-] = 3.98
• CC#C/C=C/C(=O)O = 4.2
• CC(C[Si](C)(C)CCl)C(=O)O (stereo not given) = 5.32
• Nc1ccc(B(O)O)cc1 = 9.17
• CCOC(=O)C(Cc1ccc([N+](=O)[O-])cc1)C(C)=O (stereo not given) = 11.1
• Cc1[nH]c2ccccc2c1CC(=O)O = 4.67
• Oc1onc2c1CC[NH2+]CC2 = 3.3
• C[n+]1cccc2c(S)cccc21 = 3.22
• CCc1cc([N+](=O)[O-])cc(CC)c1O = 7.73
• CCCCCCCCc1c(-c2ccccc2)nn(-c2ccccc2)c1O = 7.5
• Oc1ccc(F)cc1 = 9.88
• CC(O)[C@@H]1C[C@H](CC(=O)O)C1(C)C (stereo not given in full) = 4.83
• O=C(O)c1ccc(Cl)c([N+](=O)[O-])c1 = 3.33
• c1ccc(-c2c[nH]c(-c3ccccc3)n2)cc1 = 12.6
• c1nc(NC2CCCCC2)c2[nH]cnc2n1 = 10.2
• CCO[C@H]1C[C@H]1C(=O)O = 4.83
• C=CCC1(C2=CCCCC2)C(=O)[N-]C(=S)NC1=O = 11.7
• COc1cc(C[NH+](C)C)c(O)c(C[NH+](C)C)c1 = 6.33

----------
Conditions: basic group
Catalogue of pKa readings, one per entry.
READOUT NAME: pKa

• N=C(c1ccccc1)c1ccccc1O = 5
• COc1ccc(CN)cc1N = 9.77
• NCCCc1cccnc1 = 10.1
• C1=CN2CCC1CC2 = 9.82

----------
Details: acidic group
The class of a record is decided solely by its measured pKa; consult bottom range: < 5; center range: ≥ 5 and < 9; top range: ≥ 9

• O=S(=O)(Nc1ccc(Br)cc1)c1ccccc1 = center range
• Cc1ccc(I)cc1C(=O)O = bottom range
• C=C1CC1C[C@H]([NH3+])C(=O)O (some centres not stated) = bottom range
• C[NH+](C)CCc1c[nH]c2cccc(O)c12 = center range
• Nc1ccc2cn[nH]c2c1 = top range
• c1nc2cc3c(cc2[nH]1)CCCC3 = top range
• OCC(S)CS (configuration not stated) = center range
• CCCCO = top range
• COCCSC(C)O (configuration not stated) = top range
• O=C(Nc1nnc(-c2ccccc2)s1)c1ccccc1 = center range
• O=C(CC(=O)c1ccc([N+](=O)[O-])cc1)Nc1ccccc1 = center range
• Oc1cncc2cccnc12 = center range
• O=C(O)C(c1ccc(-c2ccccc2)cc1)C(O)C1CCCCC1 (configuration not stated) = bottom range
• SCc1ccccc1 = top range
• [NH3+]c1cccc(O[C@H]2O[C@@H](C(=O)O)[C@H](O)[C@@H](O)[C@@H]2O)c1 = bottom range
• C[N+](C)(C)CCc1ccccc1O = top range
• O=C(O)c1[nH]c[nH+]c1C(=O)[O-] = bottom range
• Cc1cccc(C)c1OCC(=O)O = bottom range
• O=[N+]([O-])Nc1ccccc1 = bottom range
• O=C(O)c1cccc2ccc(O)cc12 = bottom range

Sourced from the pKa sets of Baltruschat and Czodrowski (2020)
